Entry source: PubChem BioAssay (EPA / NIEHS)

# test name: ATG_Oct_MLP_CIS: Attagene CIS-FACTORIAL HepG2 Assay for human Octamer-Binding Transcription Factor (Oct) (AID 2282993)
# particulars: HepG2 Attagene cis-factorial Oct reporter, mRNA; actives raise or lower the signal
Activity calls are given as the source filed them. How the source made its calls: active means hit-call score of the fitted dose curve at least 0.9, where 1 is the maximum; inactive means score below 0.9.
Field 'call' accepts 1 = active, 0 = inactive

structure_smiles=ClC1=C(Cl)[C@]2(Cl)[C@@H]3[C@@H](Cl)[C@H]4O[C@H]4[C@@H]3C1(Cl)C2(Cl)Cl label_class=1
structure_smiles=Oc1ccc(Cl)cc1Cl label_class=0

Shift focus to the following entry.
QUERY: Could you please tell me the result logged for Sc1ccccc1 in this assay?
RESULT: 0

---

# test name: BSK_3C_uPAR: BioMAP Diversity Plus: 3C Assay for Urokinase-type plasminogen activator receptor (uPAR) Biomarker Activity (AID 2282998)
# particulars: BioMAP 3C HUVEC, uPAR biomarker ELISA; actives raise or lower the signal
# Description: BSK_3C is a cell-based, multiplexed-readout assay that uses umbilical vein endothelium, a human vascular primary cell, with measurements taken at 24 hours after chemical dosing in a 96-well plate.BSK_3CAR is an assay component measured in the BSK_3C assay. It measures uPAR antibody related to regulation of gene expression using ELISA technology.Data from the assay component BSK_3CAR was analyzed into 1 assay endpoint. […]
Activity calls are given as the source filed them. How the source made its calls: active means hit-call score of the fitted dose curve at least 0.9, where 1 is the maximum; inactive means score below 0.9.
assay metric: AC50

A selection of reference data follows.
molecule=Clc1ccc(Cl)cc1 assay_metric=AC50 value_reported=inactive
molecule="Clc1ccc(C(c2ccccc2Cl)C(Cl)(Cl)Cl)cc1 (configuration not stated)" assay_metric=AC50 value_reported="21.3 µM (active)"
molecule=CO/C=C(/C(=O)OC)c1ccccc1COc1cccc(C(F)(F)F)n1 assay_metric=AC50 value_reported="36.9 µM (active)"
molecule=CC(C)(O)C(=O)Nc1ccc([N+](=O)[O-])c(C(F)(F)F)c1 assay_metric=AC50 value_reported=inactive
molecule=CCNc1nc(NC(C)C)nc(SC)n1 assay_metric=AC50 value_reported=inactive
molecule=CCCCCCCCCC[N+](C)(C)CCCCCCCCCC assay_metric=AC50 value_reported="2.43 µM (active)"

Please examine the following record next.
QUERY: Quick one: AC50 of CCCCCCCCOC(=O)c1ccccc1C(=O)OCCCCCCCC ?
RESULT: inactive

---

# test name: BSK_4H_SRB: Viability Assessment in the BioMAP Diversity Plus: 4H Assay (AID 2283027);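 further: cells exposed to compound for 24 h before staining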
# particulars: primary human endothelial cells (HUVEC)
Active and inactive are the calls of the source. The calls were made as follows: active = hit-call score of the fitted dose curve at least 0.9, where 1 is the maximum; inactive = score below 0.9.
Can you answer with just one of these options? active, inactive

Past entries and their recorded results:
structure_smiles=Cc1cc(-c2ccc(N)c(C)c2)ccc1N label_class=inactive
structure_smiles=Nn1cnnc1 label_class=inactive
structure_smiles=Clc1ccc(Cl)cc1 label_class=inactive
structure_smiles=CC(C)(c1ccccc1)c1ccc(O)cc1 label_class=active
structure_smiles=ClC1=C(Cl)[C@]2(Cl)[C@@H]3[C@@H]4C[C@@H]([C@H]5O[C@@H]45)[C@@H]3[C@@]1(Cl)C2(Cl)Cl label_class=inactive
structure_smiles=O=C(N[C@H]1CN2CCC1CC2)c1cc2ccoc2cn1 label_class=inactive
structure_smiles=O=NN(c1ccccc1)c1ccccc1 label_class=inactive
structure_smiles=CC(C)(O)C(=O)Nc1ccc([N+](=O)[O-])c(C(F)(F)F)c1 label_class=inactive
structure_smiles=O=C(NC(=O)c1c(F)cccc1F)Nc1cc(Cl)c(OC(F)(F)C(F)F)c(Cl)c1 label_class=inactive
structure_smiles=Cc1ccc(O)c(C)c1 label_class=inactive

QUERY: So what was the verdict on CO/C=C(/C(=O)OC)c1ccccc1COc1cccc(C(F)(F)F)n1 in this test?
RESULT: active

QUERY: Let us now turn to Cc1cccc(C)c1N
RESULT: inactive

QUERY: Another: O=S(=O)(O)C(F)(F)C(F)(F)C(F)(F)C(F)(F)F
RESULT: inactive
